Each entry below lists one item and its recorded % Activation value.
experimental system: ΔF508-CFTR (Homo sapiens, UniProt P13569, DEL508-508)
Construct: host or cells: CFBE41o-, doxycycline-inducible
Sequence (P13569 with tags, fused parts or gaps DEL508-508): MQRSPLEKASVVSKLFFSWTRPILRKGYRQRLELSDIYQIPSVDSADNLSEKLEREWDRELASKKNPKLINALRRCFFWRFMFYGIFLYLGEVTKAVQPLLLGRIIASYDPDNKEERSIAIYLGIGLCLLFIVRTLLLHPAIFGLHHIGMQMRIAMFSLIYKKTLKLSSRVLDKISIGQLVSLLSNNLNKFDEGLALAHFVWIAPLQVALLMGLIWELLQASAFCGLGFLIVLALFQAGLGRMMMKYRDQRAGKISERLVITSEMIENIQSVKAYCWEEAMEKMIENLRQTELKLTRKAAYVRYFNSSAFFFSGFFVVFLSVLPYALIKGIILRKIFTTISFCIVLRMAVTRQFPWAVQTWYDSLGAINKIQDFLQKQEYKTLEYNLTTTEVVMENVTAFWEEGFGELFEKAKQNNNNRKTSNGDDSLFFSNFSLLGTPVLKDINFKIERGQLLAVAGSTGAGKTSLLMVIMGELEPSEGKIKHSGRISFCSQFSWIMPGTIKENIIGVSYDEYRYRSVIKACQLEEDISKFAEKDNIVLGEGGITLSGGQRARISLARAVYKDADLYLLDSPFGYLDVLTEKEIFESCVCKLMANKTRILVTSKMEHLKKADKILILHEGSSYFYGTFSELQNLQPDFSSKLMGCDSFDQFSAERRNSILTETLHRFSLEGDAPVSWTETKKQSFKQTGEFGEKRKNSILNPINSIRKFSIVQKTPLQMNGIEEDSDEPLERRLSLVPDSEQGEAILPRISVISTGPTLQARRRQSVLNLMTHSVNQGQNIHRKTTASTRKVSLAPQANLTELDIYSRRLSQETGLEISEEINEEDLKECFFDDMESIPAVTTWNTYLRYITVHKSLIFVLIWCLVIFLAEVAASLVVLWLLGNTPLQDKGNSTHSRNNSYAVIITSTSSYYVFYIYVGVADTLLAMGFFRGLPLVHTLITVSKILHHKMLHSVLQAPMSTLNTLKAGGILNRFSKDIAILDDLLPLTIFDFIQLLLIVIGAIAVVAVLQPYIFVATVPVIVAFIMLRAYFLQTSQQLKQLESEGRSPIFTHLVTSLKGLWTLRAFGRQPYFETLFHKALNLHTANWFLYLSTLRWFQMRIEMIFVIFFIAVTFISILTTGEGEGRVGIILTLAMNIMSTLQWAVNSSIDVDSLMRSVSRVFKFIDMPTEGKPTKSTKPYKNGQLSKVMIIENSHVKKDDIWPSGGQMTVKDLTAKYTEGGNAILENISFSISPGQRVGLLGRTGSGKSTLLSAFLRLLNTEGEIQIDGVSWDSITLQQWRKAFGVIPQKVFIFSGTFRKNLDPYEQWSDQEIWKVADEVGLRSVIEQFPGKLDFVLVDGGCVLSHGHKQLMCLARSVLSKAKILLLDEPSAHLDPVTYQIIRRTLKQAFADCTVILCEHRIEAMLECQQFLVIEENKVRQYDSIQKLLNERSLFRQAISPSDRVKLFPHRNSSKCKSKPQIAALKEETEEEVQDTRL
test description: CFTR cell surface levels using HRP-tagged ΔF508-CFTR expressing CFBE cells, in the presence of a co-corrector
Format: cell-based
experimental parameters: HRP-tagged ΔF508-CFTR CFBE cells, in the presence of 3 μM co-corrector
Reply numerically in %, unit not repeated.

Q: Provide the documented % Activation with ΔF508-CFTR (Homo sapiens, UniProt P13569, DEL508-508) as the system for CN(C)S(=O)(=O)NC(=O)c1cc(N2CCC3C(CCN3C3COC3)C2)c2c(C3CCC3)nn(-c3ccc(F)cc3)c2n1 (stereo not shown)
Ans: 348.57

Q: Find % Activation (ΔF508-CFTR (Homo sapiens, UniProt P13569, DEL508-508)) for the entry CC(C)c1nn(-c2ccccc2)c2nc(C(=O)NS(C)(=O)=O)cc(-c3ccc(N4CCOCC4)nc3)c12
Ans: 462.55

Q: Find % Activation (ΔF508-CFTR (Homo sapiens, UniProt P13569, DEL508-508)) for the entry COC1CCN(C2CCN(c3cc(C(=O)NS(C)(=O)=O)nc4c3c(OC(C)C)nn4-c3ccc(F)cc3)CC2)CC1
Ans: 529.95

Q: Form field: % Activation recorded for COCC1CCN(c2cc(C(=O)NS(=O)(=O)c3c(C)noc3C)nc3c2c(C2CCC2)nn3-c2ccccc2)CC1 with ΔF508-CFTR (Homo sapiens, UniProt P13569, DEL508-508) (enter value)
Ans: 450.9

Q: Under ΔF508-CFTR (Homo sapiens, UniProt P13569, DEL508-508): % Activation value of CCS(=O)(=O)NC(=O)c1cc(-c2ccc(N3CCOCC3)cc2)c2c(C)nn(-c3ccc(OC(F)(F)F)cc3)c2n1 ?
Ans: 342.85

Q: Lab note: need % Activation with ΔF508-CFTR (Homo sapiens, UniProt P13569, DEL508-508) for entry CCS(=O)(=O)NC(=O)c1cc(-c2ccc(N(C)C3CCOCC3)nc2)c2c(C(C)C)nn(-c3cccc(F)c3)c2n1 , please look it up.
Ans: 453.1

Now let's try a different one.
Q: // map COC1CCN(c2cc(C(=O)NS(=O)(=O)C3CCS(=O)(=O)C3)nc3c2c(C2CCC2)nn3-c2ccccc2)CC1 (stereo not shown) to recorded % Activation (system: ΔF508-CFTR (Homo sapiens, UniProt P13569, DEL508-508))
Ans: 217.8

---

experimental system: ΔF508-CFTR (Homo sapiens, UniProt P13569, DEL508-508)
Construct: host or cells: CFBE41o-, doxycycline-inducible
test description: CFTR cell surface levels using HRP-tagged ΔF508-CFTR expressing CFBE cells, in the presence of a co-corrector
Format: cell-based
experimental parameters: HRP-tagged ΔF508-CFTR CFBE cells, in the presence of 3 μM co-corrector
Think of 400% as a floor: if % Activation stands on it or above, it is label 1; beneath it, label 0.

Worked set:
Q: Please tell me: is the molecule CS(=O)(=O)NC(=O)c1cc(N2CC3(CCCC3)C2)c2c(C3CCC3)nn(-c3ccccc3)c2n1 at or over 400% in terms of % Activation?
Ans: label 0

Q: Determine whether this molecule has % Activation no lower than 400%: CS(=O)(=O)NC(=O)c1cc(N2CCC(N3CCCC(C(F)(F)F)C3)CC2)c2c(C3CCC3)nn(-c3ccc(F)cc3)c2n1 (stereo not drawn)
Ans: label 1

Q: Hi, just wondering whether CC(C)c1nn(-c2ccc(F)cc2)c2nc(C(=O)NS(=O)(=O)N(C)C)cc(N3CCC(N4CCOCC4)CC3)c12 shows % Activation of 400% or higher.
Ans: label 1

Q: Item O=C(NS(=O)(=O)C1CCOC1)c1cc(-c2ccc(CN3CCOCC3)cc2)c2c(OC3CCC3)nn(C3CCCCC3)c2n1 (stereo not drawn) with % Activation of 400% or above?
Ans: label 0

New cases:
Q: Quick check, % Activation >= 400%? COCC1CCN(c2cc(C(=O)NS(=O)(=O)CC(=O)OC)nc3c2c(C2CCC2)nn3-c2ccccc2)CC1
Ans: label 1

Q: Textbook exercise: given the entry CCS(=O)(=O)NC(=O)c1cc(N2CCC(CN3CCCC3)CC2)c2c(C3CCC3)nn(-c3ccccc3)c2n1 , state whether its % Activation is greater than or equal to 400%.
Ans: label 1

Q: Can CCOC(=O)N1CCN(c2cc(C(=O)NS(C)(=O)=O)nc3c2c(C(C)C)nn3-c2ccc(F)cc2)CC1 be said to have % Activation at or above 400%?
Ans: label 1

Q: Reported % Activation reaches at least 400% for O=C(NS(=O)(=O)C1CC1)c1cc(N2CCC(N3CCCCC3)CC2)c2c(C3CCC3)nn(-c3ccccc3)c2n1 ?
Ans: label 1

Q: API: above_or_equal(metric=% Activation, cutoff=400%) for item COCCS(=O)(=O)NC(=O)c1cc(N2CCN(C(C)C)CC2)c2c(C3CCC3)nn(-c3ccccc3)c2n1
Ans: label 0

Q: Entry CCS(=O)(=O)NC(=O)c1cc(-c2cnc(N3CCOCC3)nc2)c2c(C(C)C)nn(-c3ccccc3)c2n1 : is its % Activation no less than 400%?
Ans: label 1

Q: Please indicate if the recorded % Activation for COCC1CCN(c2cc(C(=O)N3CCCCS3(=O)=O)nc3c2c(C2CCC2)nn3-c2ccccc2)CC1 meets or exceeds 400%.
Ans: label 0
